Every entry's value here was drawn from PubChem BioAssay (NCATS).

Assay: Quantitative High-Throughput drug screen in 47 multiple myeloma cell lines against the NCATS MIPE library collection: OPM1_PLB cell viability assay (AID 1918989); note: nearly all actives have a fitted effect of over 40% in size
Details: CellTiter-Glo, 48 h; series mostly up to 45.8 µM
Results filed as inconclusive are left out. The source made the active and inactive calls. Calls come from the whole dose curve; as a rule, active = well fitted cell-killing curve with a large enough effect; inconclusive = small, poorly fitted or top-dose-only effect, or effect the other way; inactive = no such curve, though single readings can be large or run the other way. Non-standard residues stand in square brackets, D forms with d. Residues, ends and D or L forms follow the SMILES beside them. *: point of attachment. Nva = CCC[C@H](N)C(=O)O; Cbz = O=C(OCc1ccccc1)*
Classes used: active, inactive

{"compound": "CC(C)NC[C@@H](C(=O)N1CCN(c2ncnc3c2[C@H](C)C[C@H]3O)CC1)c1ccc(Cl)cc1", "label-value": "active"}
{"compound": "NC(=NCCCCCCN=C(N)N=C(N)Nc1ccc(Cl)cc1)N=C(N)Nc1ccc(Cl)cc1", "label-value": "active"}
{"compound": "C=CC(=O)Nc1cccc(Nc2nc(NC3CCC(N(C)C)CC3)nc3c2ncn3C(C)C)c1 (centres undefined)", "label-value": "active"}
{"compound": "CCC[C@@H](C=O)NC(=O)[C@H](CC(C)C)NC(=O)[C@H](CC(C)C)NC(=O)OCc1ccccc1 (Cbz-Leu-Leu-[Nva]-aldehyde)", "label-value": "active"}
{"compound": "OCCN1C[C@H](O)[C@@H](O)[C@H](O)[C@@H]1CO", "label-value": "inactive"}
{"compound": "CN[C@H]1[C@@H](O)[C@@H]2O[C@@H]3O[C@H](C)CC(=O)[C@]3(O)O[C@@H]2[C@@H](NC)[C@H]1O", "label-value": "active"}
{"compound": "FC(F)(F)c1ccc(Nc2nc3ccc(Oc4ccnc(-c5ncc(C(F)(F)F)[nH]5)c4)cc3[nH]2)cc1", "label-value": "active"}
{"compound": "NC(=O)c1ncn([C@@H]2O[C@H](CO)[C@@H](O)[C@@H]2O)c1N", "label-value": "inactive"}
{"compound": "O=C(c1ccc(F)cc1)N1CCC[C@H](c2nc(-c3ccc(F)cc3)no2)C1", "label-value": "inactive"}
{"compound": "N#Cc1c(NC(=O)c2cccc3ccccc23)sc2c1CCCC2", "label-value": "active"}
{"compound": "COC[C@H](NC(=O)c1cnc(C)s1)C(=O)N[C@@H](COC)C(=O)N[C@@H](Cc1ccccc1)C(=O)[C@@]1(C)CO1", "label-value": "active"}
{"compound": "C[C@@]12C(=O)OC(=O)[C@@]1(C)C1CCC2O1", "label-value": "active"}
{"compound": "CC[C@]12C=CCN3CC[C@@]4(c5cc([C@@]6(C(=O)OC)C[C@H]7C[C@@H](C(C)(F)F)CN(Cc8c6[nH]c6ccccc86)C7)c(OC)cc5N(C)[C@H]4[C@@](O)(C(=O)OC)[C@H]1OC(C)=O)[C@@H]32", "label-value": "active"}
{"compound": "Oc1cc2c(cc1O)C1c3ccc(O)c(O)c3OCC1(O)C2 (centres undefined)", "label-value": "inactive"}
{"compound": "CCNC(=O)Nc1ccc(-c2nc3c(c(N4CCOC[C@H]4C)n2)CCN(C2COC2)C3)cc1", "label-value": "active"}
{"compound": "O=C(O)C=Cc1ccc(Cn2ccnc2)cc1", "label-value": "inactive"}
{"compound": "CN1[C@H]2CC(OC(=O)[C@@H](CO)c3ccccc3)C[C@H]1[C@H]1O[C@H]12 (some centres undefined)", "label-value": "inactive"}
{"compound": "Cn1cc(C2=C(c3c4n(c5ccccc35)CCC(CN)C4)C(=O)NC2=O)c2ccccc21 (centres undefined)", "label-value": "active"}
{"compound": "COc1ccnc2[nH]cc(C(=O)C(=O)N3CCN(C(=O)c4ccccc4)C[C@@H]3C)c12", "label-value": "inactive"}
